Attribution: ChEMBL document CHEMBL1201862

Tested on: SK-MEL-2
Measurement notes: NCI tumour cell line growth inhibition, 48 h
Active and inactive are the calls of the source. No stated cut-off is given here; in the data, active = GI50 up to about 1.1 µM and inactive = higher.
Assign GI50 to each entry below.

Determine reported GI50 for Cc1cn([C@H]2C[C@@H](N3C(=O)c4ccccc4C3=O)[C@@H](CO[Si](C)(C)C(C)(C)C)O2)c(=O)[nH]c1=O ; test system: SK-MEL-2.
46.8 µM (inactive)

Determine reported GI50 for COc1ccccc1C1C(C(=O)Nc2ccccc2)=C(C)NC(C)=C1C(=O)Nc1ccccc1 ; test system: SK-MEL-2.
32 µM (inactive)

Determine reported GI50 for COc1ccc(C2SCC(=O)N2NC(=O)C(C)Oc2ccc(Cl)cc2Cl)cc1 (stereo not given) ; test system: SK-MEL-2.
50.2 µM (inactive)

Determine reported GI50 for COc1ccc(OC)c(CCc2cc(OC)c(OC)cc2C)c1 ; test system: SK-MEL-2.
6.68 µM (inactive)

Determine reported GI50 for CN1C2CC(=O)CC1[C@@H]1OC(c3ccccc3)O[C@H]21 (stereo not given in full) ; test system: SK-MEL-2.
> 100 µM (inactive)
